Hi there, I'd appreciate the recorded melting point for every entry that follows.

melting point in this record for C=C[C@]1(C)C[C@@H](OC(=O)CNCCc2cccs2)[C@]2(C)[C@H](C)CC[C@]3(CCC(=O)[C@H]32)[C@@H](C)[C@@H]1O [Compound 20] : 69 to 70 °C

melting point in this record for C=C[C@]1(C)C[C@@H](OC(=O)CNCCCCCCCCCCCC)[C@]2(C)[C@H](C)CC[C@]3(CCC(=O)[C@H]32)[C@@H](C)[C@@H]1O [Compound 23, 22-Dodecylamineyl-22-deoxypleuromutilin] : 75 to 77 °C

melting point in this record for C=C[C@]1(C)C[C@@H](OC(=O)CNc2ccc(Cl)cc2)[C@]2(C)[C@H](C)CC[C@]3(CCC(=O)[C@H]32)[C@@H](C)[C@@H]1O [Compound 11] : 94 to 95 °C

melting point in this record for C=C[C@]1(C)C[C@@H](OC(=O)CNCCCCCCCC)[C@]2(C)[C@H](C)CC[C@]3(CCC(=O)[C@H]32)[C@@H](C)[C@@H]1O [Compound 22, 22-Octylamineyl-22-deoxypleuromutilin] : 76 to 77 °C

melting point in this record for C=C[C@]1(C)C[C@@H](OC(=O)CNC23CC4CC(CC(C4)C2)C3)[C@]2(C)[C@H](C)CC[C@]3(CCC(=O)[C@H]32)[C@@H](C)[C@@H]1O [Compound 27, 22-Amantadineyl-22-deoxypleuromutilin] : 105 to 109 °C

melting point in this record for C=C[C@]1(C)C[C@@H](OC(=O)CNCCO)[C@]2(C)[C@H](C)CC[C@]3(CCC(=O)[C@H]32)[C@@H](C)[C@@H]1O [Compound 28, 22-Ethanolamine-22-deoxypleuromutilin] : 91 to 94 °C

melting point in this record for C=C[C@]1(C)C[C@@H](OC(=O)CNCc2cccc(F)c2)[C@]2(C)[C@H](C)CC[C@]3(CCC(=O)[C@H]32)[C@@H](C)[C@@H]1O [Compound 15] : 143 to 144 °C

melting point in this record for C=C[C@]1(C)C[C@@H](OC(=O)CNCCc2ccccc2)[C@]2(C)[C@H](C)CC[C@]3(CCC(=O)[C@H]32)[C@@H](C)[C@@H]1O [Compound 17] : 73 to 75 °C

melting point in this record for C=C[C@]1(C)C[C@@H](OC(=O)CNc2ccc(F)cc2)[C@]2(C)[C@H](C)CC[C@]3(CCC(=O)[C@H]32)[C@@H](C)[C@@H]1O [Compound 9] : 91 to 93 °C

melting point in this record for C=C[C@]1(C)C[C@@H](OC(=O)CNCCSC)[C@]2(C)[C@H](C)CC[C@]3(CCC(=O)[C@H]32)[C@@H](C)[C@@H]1O [Compound 26] : 153 to 155 °C

melting point in this record for C=C[C@]1(C)C[C@@H](OC(=O)CNc2cccc(Cl)c2)[C@]2(C)[C@H](C)CC[C@]3(CCC(=O)[C@H]32)[C@@H](C)[C@@H]1O [Compound 10] : 158 to 160 °C

melting point in this record for C=C[C@]1(C)C[C@@H](OC(=O)CNCCc2ccccc2C)[C@]2(C)[C@H](C)CC[C@]3(CCC(=O)[C@H]32)[C@@H](C)[C@@H]1O [Compound 18] : 91 to 93 °C

melting point in this record for C=C[C@]1(C)C[C@@H](OC(=O)CNc2cccc(Br)c2)[C@]2(C)[C@H](C)CC[C@]3(CCC(=O)[C@H]32)[C@@H](C)[C@@H]1O [Compound 12] : 161 to 163 °C

melting point in this record for C=C[C@]1(C)C[C@@H](OC(=O)CN2CCSCC2)[C@]2(C)[C@H](C)CC[C@]3(CCC(=O)[C@H]32)[C@@H](C)[C@@H]1O [Compound 30, 22-Thiomorpholine-22-deoxypleuromutilin] : 82 to 83 °C

melting point in this record for C=C[C@]1(C)C[C@@H](OC(=O)CNc2ccc(Br)cc2)[C@]2(C)[C@H](C)CC[C@]3(CCC(=O)[C@H]32)[C@@H](C)[C@@H]1O [Compound 13] : 97 to 98 °C

melting point in this record for C=C[C@]1(C)C[C@@H](OC(=O)CNCc2ccccc2F)[C@]2(C)[C@H](C)CC[C@]3(CCC(=O)[C@H]32)[C@@H](C)[C@@H]1O [Compound 14] : 163 to 164 °C

melting point in this record for C=C[C@]1(C)C[C@@H](OC(=O)CNCCCc2ccccc2)[C@]2(C)[C@H](C)CC[C@]3(CCC(=O)[C@H]32)[C@@H](C)[C@@H]1O [Compound 19] : 83 to 84 °C

melting point in this record for C=C[C@]1(C)C[C@@H](OC(=O)CN2CCOCC2)[C@]2(C)[C@H](C)CC[C@]3(CCC(=O)[C@H]32)[C@@H](C)[C@@H]1O [Compound 29, 22-Morpholine-22-deoxypleuromutilin] : 157 to 159 °C

melting point in this record for C=C[C@]1(C)C[C@@H](OC(=O)CNCc2ccc(F)cc2)[C@]2(C)[C@H](C)CC[C@]3(CCC(=O)[C@H]32)[C@@H](C)[C@@H]1O [Compound 16] : 76 to 77 °C

melting point in this record for C=C[C@]1(C)C[C@@H](OC(=O)CNCCCCCCCCCCCCCCCC)[C@]2(C)[C@H](C)CC[C@]3(CCC(=O)[C@H]32)[C@@H](C)[C@@H]1O [Compound 24] : 76 to 79 °C

melting point in this record for C=C[C@]1(C)C[C@@H](OC(=O)CNCCCC)[C@]2(C)[C@H](C)CC[C@]3(CCC(=O)[C@H]32)[C@@H](C)[C@@H]1O [Compound 21, 22-Butylamineyl-22-deoxypleuromutilin] : 74 to 75 °C

melting point in this record for C=C[C@]1(C)C[C@@H](OC(=O)CNCCS(C)(=O)=O)[C@]2(C)[C@H](C)CC[C@]3(CCC(=O)[C@H]32)[C@@H](C)[C@@H]1O [Compound 25] : 183 to 186 °C
